Assay: Photostability of the compound assessed as parent compound remaining under sunlight exposed for 3 days in EtOH solution measured by TLC method
Format: physicochemical
Conditions: read-out: Stability
METRIC NAME: remaining at 72 h (%)
Give the value, in units of %, as a plain number.

[ask] Give remaining at 72 h for the following compound: CC(C)=CCC/C(C)=C/CC/C(C)=C/COc1ccc2ccc(=O)oc2c1 [UMBELLIPRENIN]
[reply] 35

----------
Experiment: Stability of the compound assessed as compound degradation in 0.1 M HCl solution at room temperature in EtOH solution after 96 hrs by HPLC analysis
Format: physicochemical
Conditions: 0.1 M HCl solution in EtOH solution; read-out: Drug degradation
METRIC NAME: degraded at 96 h
Include the unit right after the number.

[ask] Return reported degraded at 96 h. Input compound: CC(C)=CCC/C(C)=C/CC/C(C)=C/COc1ccc2ccc(=O)oc2c1
[reply] 22.2%

Origin of measurements: ChEMBL document CHEMBL4130412
